test system: 422866-222-R5-J1-PDC spheroid viability; test: Anticancer human tumor 422866-222-R5-J1-PDC patient-derived pancreatic adenocarcinoma cell line growth inhibition [CLK]; conditions: second compound 10 µM; first compound 0.316 µM; stronger effect = lower value; spheroids with HUVEC and MSC
Returns: string. Value is criterion met if measured viability, T/C is below 5%, and criterion not met if it is greater than or equal to it.

Past entries and their recorded results:
# Compound, System, Group Label
data = [
    ("COc1c(OCCCN2CCOCC2)ccc2c3n(c(=NC(=O)c4cnc(N)nc4)nc12)CCN3 + CN1CCN(c2cc(C(=O)Nc3cc4cc(-c5cnn(C)c5)ccc4cn3)ccn2)CC1", "422866-222-R5-J1-PDC spheroid viability", "criterion not met"),
    ("C=CC(=O)N1CCN(c2nc(=O)n(-c3c(C)ccnc3C(C)C)c3nc(-c4c(O)cccc4F)c(F)cc23)C(C)C1 (stereo not given) + CNC(=O)c1ccc(Nc2nc(OC3CCCC3)c3c(-c4ccc5nc(C)oc5c4)c[nH]c3n2)c(OC)c1", "422866-222-R5-J1-PDC spheroid viability", "criterion not met"),
    ("C#Cc1c(F)ccc2cc(O)cc(-c3ncc4c(N5CC6CCC(C5)N6)nc(OCC56CCCN5CC(F)C6)nc4c3F)c12 (stereo not given) + CNC(=O)c1ccc(Nc2nc(OC3CCCC3)c3c(-c4ccc5nc(C)oc5c4)c[nH]c3n2)c(OC)c1", "422866-222-R5-J1-PDC spheroid viability", "criterion not met"),
]

Regarding O=C(c1cc(Cc2n[nH]c(=O)c3ccccc23)ccc1F)N1CCN(C(=O)C2CC2)CC1 + CNC(=O)c1ccc(Nc2nc(OC3CCCC3)c3c(-c4ccc5nc(C)oc5c4)c[nH]c3n2)c(OC)c1 , kindly confirm whether its viability, T/C is beneath 5%. criterion not met

Regarding COC1C=CCC(C)C(C)S(=O)(=O)NC(=O)c2ccc3c(c2)N(CC2CCC21)CC1(CCCc2cc(Cl)ccc21)CO3 (stereo not given) + CN1CCN(c2cc(C(=O)Nc3cc4cc(-c5cnn(C)c5)ccc4cn3)ccn2)CC1 , kindly confirm whether its viability, T/C is beneath 5%. criterion met

Regarding CC(Nc1ccc2c(c1)OCCn1cc(N3C(=O)OCC3C(F)F)nc1-2)C(N)=O (stereo not given) + CNC(=O)c1ccc(Nc2nc(OC3CCCC3)c3c(-c4ccc5nc(C)oc5c4)c[nH]c3n2)c(OC)c1 , kindly confirm whether its viability, T/C is beneath 5%. criterion not met

Regarding CC(Nc1ccc2c(c1)OCCn1cc(N3C(=O)OCC3C(F)F)nc1-2)C(N)=O (stereo not given) + CN1CCN(c2cc(C(=O)Nc3cc4cc(-c5cnn(C)c5)ccc4cn3)ccn2)CC1 , kindly confirm whether its viability, T/C is beneath 5%. criterion met

Regarding Nc1ccccc1NC(=O)c1ccc(CNC(=O)OCc2cccnc2)cc1 + CNC(=O)c1ccc(Nc2nc(OC3CCCC3)c3c(-c4ccc5nc(C)oc5c4)c[nH]c3n2)c(OC)c1 , kindly confirm whether its viability, T/C is beneath 5%. criterion not met

Regarding CCN1CCN(Cc2ccc(Nc3ncc(F)c(-c4cc(F)c5nc(C)n(C(C)C)c5c4)n3)nc2)CC1 + CNC(=O)c1ccc(Nc2nc(OC3CCCC3)c3c(-c4ccc5nc(C)oc5c4)c[nH]c3n2)c(OC)c1 , kindly confirm whether its viability, T/C is beneath 5%. criterion not met

Regarding COc1cccc2c1C(=O)c1c(O)c3c(c(O)c1C2=O)CC(O)(C(=O)CO)CC3OC1CC(N)C(O)C(C)O1 (stereo not given) + CN1CCN(c2cc(C(=O)Nc3cc4cc(-c5cnn(C)c5)ccc4cn3)ccn2)CC1 , kindly confirm whether its viability, T/C is beneath 5%. criterion met

---

test system: 422866-222-R5-J1-PDC spheroid viability; test: Anticancer human tumor 422866-222-R5-J1-PDC cell line growth inhibition [CLK]; conditions: second compound 3.16 µM; first compound 0.0316 µM; stronger effect = lower value; spheroids with HUVEC and MSC;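 also: spheroids exposed to agents for seven days before readout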
Property Measured: viability, T/C (%)
Entry rule: numbers only, all in %.

Below, each entry is followed by its recorded viability, T/C result.
# Compound, Property Measured, Reported Measurement
rows = [
    ("CC1(C)CCC(CN2CCN(c3ccc(C(=O)NS(=O)(=O)c4ccc(NCC5CCOCC5)c([N+](=O)[O-])c4)c(Oc4cnc5[nH]ccc5c4)c3)CC2)=C(c2ccc(Cl)cc2)C1 + CN1CCN(c2cc(C(=O)Nc3cc4cc(-c5cnn(C)c5)ccc4cn3)ccn2)CC1", "viability, T/C", 11.2),
    ("CC1(C)CCC(CN2CCN(c3ccc(C(=O)NS(=O)(=O)c4ccc(NCC5CCOCC5)c([N+](=O)[O-])c4)c(Oc4cnc5[nH]ccc5c4)c3)CC2)=C(c2ccc(Cl)cc2)C1 + CNC(=O)c1ccc(Nc2nc(OC3CCCC3)c3c(-c4ccc5nc(C)oc5c4)c[nH]c3n2)c(OC)c1", "viability, T/C", 65.2),
]

What reported viability, T/C corresponds to O=c1[nH]cc(F)c(=O)[nH]1 + CNC(=O)c1ccc(Nc2nc(OC3CCCC3)c3c(-c4ccc5nc(C)oc5c4)c[nH]c3n2)c(OC)c1 on 422866-222-R5-J1-PDC spheroid viability? 58.3

---

test system: 422866-222-R5-J1-PDC spheroid viability; experiment: Anticancer human tumor 422866-222-R5-J1-PDC cell line growth inhibition [CLK]; settings: second compound 0.0316 µM; first compound 3.16 µM; stronger effect = lower value; spheroids with HUVEC and MSC;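 also: spheroids exposed to agents for seven days before readout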
Returns: string. Value is criterion met if measured viability, T/C is below 60%, and criterion not met if it is greater than or equal to it.

Regarding C#Cc1c(F)ccc2cc(O)cc(-c3ncc4c(N5CC6CCC(C5)N6)nc(OCC56CCCN5CC(F)C6)nc4c3F)c12 (stereo not drawn) + CN1CCN(c2cc(C(=O)Nc3cc4cc(-c5cnn(C)c5)ccc4cn3)ccn2)CC1 , kindly confirm whether its viability, T/C is beneath 60%. criterion met

Regarding Nc1ccn(C2OC(CO)C(O)C2(F)F)c(=O)n1 (stereo not drawn) + CN1CCN(c2cc(C(=O)Nc3cc4cc(-c5cnn(C)c5)ccc4cn3)ccn2)CC1 , kindly confirm whether its viability, T/C is beneath 60%. criterion met

Regarding CCCS(=O)(=O)Nc1ccc(F)c(C(=O)c2c[nH]c3ncc(-c4ccc(Cl)cc4)cc23)c1F + CN1CCN(c2cc(C(=O)Nc3cc4cc(-c5cnn(C)c5)ccc4cn3)ccn2)CC1 , kindly confirm whether its viability, T/C is beneath 60%. criterion not met

Regarding CCCS(=O)(=O)Nc1ccc(F)c(C(=O)c2c[nH]c3ncc(-c4ccc(Cl)cc4)cc23)c1F + CNC(=O)c1ccc(Nc2nc(OC3CCCC3)c3c(-c4ccc5nc(C)oc5c4)c[nH]c3n2)c(OC)c1 , kindly confirm whether its viability, T/C is beneath 60%. criterion not met

Regarding O=c1[nH]cc(F)c(=O)[nH]1 + CN1CCN(c2cc(C(=O)Nc3cc4cc(-c5cnn(C)c5)ccc4cn3)ccn2)CC1 , kindly confirm whether its viability, T/C is beneath 60%. criterion not met

Regarding C=CC(=O)N1CCN(c2nc(=O)n(-c3c(C)ccnc3C(C)C)c3nc(-c4c(O)cccc4F)c(F)cc23)C(C)C1 (stereo not drawn) + CNC(=O)c1ccc(Nc2nc(OC3CCCC3)c3c(-c4ccc5nc(C)oc5c4)c[nH]c3n2)c(OC)c1 , kindly confirm whether its viability, T/C is beneath 60%. criterion met

Regarding COC1C=CCC(C)C(C)S(=O)(=O)NC(=O)c2ccc3c(c2)N(CC2CCC21)CC1(CCCc2cc(Cl)ccc21)CO3 (stereo not drawn) + CNC(=O)c1ccc(Nc2nc(OC3CCCC3)c3c(-c4ccc5nc(C)oc5c4)c[nH]c3n2)c(OC)c1 , kindly confirm whether its viability, T/C is beneath 60%. criterion not met
